These records show log10 IC50 for Human KIF18A (amino acid sequence 1-417) (Homo sapiens).
PARAMETER: log10 IC50 (log10 of the value in nM)

MOLECULE: Cc1cc(-c2cc(-c3ccc(NS(=O)(=O)CCO)cc3N3CCC4(CC3)CC4)n[nH]2)nc(N2CCC(F)(F)CC2)n1
TARGET OR TEST SYSTEM: Human KIF18A (amino acid sequence 1-417) (Homo sapiens)
EXPERIMENTAL RESULT: 3.04
--
MOLECULE: O=S(=O)(CCO)Nc1ccc(-n2cc(-c3cc4cccnc4c(N4CCC(F)(F)CC4)c3F)nn2)c(N2CCC3(CC2)CC3)c1
TARGET OR TEST SYSTEM: Human KIF18A (amino acid sequence 1-417) (Homo sapiens)
EXPERIMENTAL RESULT: 2.43
--
MOLECULE: Cc1cc(-c2nnc(-c3ccc(NS(=O)(=O)CCO)cc3N3CCC4(CC3)CC4)o2)nc(NC(C)(C)CO)n1
TARGET OR TEST SYSTEM: Human KIF18A (amino acid sequence 1-417) (Homo sapiens)
EXPERIMENTAL RESULT: 2.39
--
MOLECULE: COc1cc(-c2cn(-c3ccc(NS(=O)(=O)CCO)cc3N3CCC4(CC3)CC4)nn2)cc(N2CCC(F)(F)CC2)n1
TARGET OR TEST SYSTEM: Human KIF18A (amino acid sequence 1-417) (Homo sapiens)
EXPERIMENTAL RESULT: 2.43
--
MOLECULE: Cc1cc(-c2nnc(-c3ccc(NS(=O)(=O)CCO)cc3N3CCC4(CC3)CC4)o2)nc(N2CCC(F)(F)CC2)n1
TARGET OR TEST SYSTEM: Human KIF18A (amino acid sequence 1-417) (Homo sapiens)
EXPERIMENTAL RESULT: 1.78
--
MOLECULE: Cc1cc(-c2nnc(-c3ccc(NS(=O)(=O)CCO)cc3N3CCC4(CC3)CC4)o2)nc(N2CCC(C)(O)CC2)n1
TARGET OR TEST SYSTEM: Human KIF18A (amino acid sequence 1-417) (Homo sapiens)
EXPERIMENTAL RESULT: 2.80
--
MOLECULE: Cc1cc(-c2cn(-c3ccc(NS(=O)(=O)CCO)cc3N3CCC4(CC3)CC4)nn2)cc(-c2cnn(C)c2)n1
TARGET OR TEST SYSTEM: Human KIF18A (amino acid sequence 1-417) (Homo sapiens)
EXPERIMENTAL RESULT: 2.62
--
MOLECULE: O=S(=O)(CCO)Nc1ccc(-c2nnc(-c3cc(O)nc(N4CCC(F)(F)CC4)n3)o2)c(N2CCC3(CC2)CC3)c1
TARGET OR TEST SYSTEM: Human KIF18A (amino acid sequence 1-417) (Homo sapiens)
EXPERIMENTAL RESULT: 1.83
--
MOLECULE: Cc1cc(-c2nnc(-c3ccc(NS(=O)(=O)CCO)cc3N3CCC4(CC3)CC4)o2)nc(N2CCCC(O)C2)n1 (stereo not shown)
TARGET OR TEST SYSTEM: Human KIF18A (amino acid sequence 1-417) (Homo sapiens)
EXPERIMENTAL RESULT: 1.66
--
MOLECULE: Cc1cc(-c2nnc(-c3ccc(NS(=O)(=O)C(C)(C)CO)cc3N3CCC4(CC3)CC4)o2)cc(N2CCC(F)(F)CC2)n1
TARGET OR TEST SYSTEM: Human KIF18A (amino acid sequence 1-417) (Homo sapiens)
EXPERIMENTAL RESULT: 1.92

* * *

Biological target: Human KIF18A (amino acid sequence 1-417) (Homo sapiens, UniProt Q8NI77)
Sequence (Q8NI77 1-417): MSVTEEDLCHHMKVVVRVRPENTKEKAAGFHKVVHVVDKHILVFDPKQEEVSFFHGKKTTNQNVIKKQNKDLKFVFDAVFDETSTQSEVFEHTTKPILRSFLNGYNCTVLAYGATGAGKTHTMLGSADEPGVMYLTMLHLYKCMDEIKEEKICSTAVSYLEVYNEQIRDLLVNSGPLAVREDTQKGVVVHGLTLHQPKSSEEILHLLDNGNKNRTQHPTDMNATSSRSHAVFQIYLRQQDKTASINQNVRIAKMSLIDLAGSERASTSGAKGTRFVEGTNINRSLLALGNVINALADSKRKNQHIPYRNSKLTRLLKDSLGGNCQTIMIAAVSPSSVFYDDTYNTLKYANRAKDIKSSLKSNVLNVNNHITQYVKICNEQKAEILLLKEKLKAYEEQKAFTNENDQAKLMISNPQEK
Sequence (Q2XVP4 whole entry partner): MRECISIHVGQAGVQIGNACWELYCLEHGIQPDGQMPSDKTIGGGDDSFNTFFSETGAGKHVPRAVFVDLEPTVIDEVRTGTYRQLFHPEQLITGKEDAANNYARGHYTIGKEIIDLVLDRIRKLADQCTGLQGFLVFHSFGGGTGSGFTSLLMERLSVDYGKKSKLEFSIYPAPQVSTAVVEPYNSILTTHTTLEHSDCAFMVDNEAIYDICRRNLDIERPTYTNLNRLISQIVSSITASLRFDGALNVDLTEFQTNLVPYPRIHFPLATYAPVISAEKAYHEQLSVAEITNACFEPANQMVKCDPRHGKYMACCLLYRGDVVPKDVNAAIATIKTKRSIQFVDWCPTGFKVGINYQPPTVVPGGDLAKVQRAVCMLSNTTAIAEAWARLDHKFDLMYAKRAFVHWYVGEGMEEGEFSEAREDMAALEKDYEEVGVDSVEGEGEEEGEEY
Sequence (P02554 whole entry partner): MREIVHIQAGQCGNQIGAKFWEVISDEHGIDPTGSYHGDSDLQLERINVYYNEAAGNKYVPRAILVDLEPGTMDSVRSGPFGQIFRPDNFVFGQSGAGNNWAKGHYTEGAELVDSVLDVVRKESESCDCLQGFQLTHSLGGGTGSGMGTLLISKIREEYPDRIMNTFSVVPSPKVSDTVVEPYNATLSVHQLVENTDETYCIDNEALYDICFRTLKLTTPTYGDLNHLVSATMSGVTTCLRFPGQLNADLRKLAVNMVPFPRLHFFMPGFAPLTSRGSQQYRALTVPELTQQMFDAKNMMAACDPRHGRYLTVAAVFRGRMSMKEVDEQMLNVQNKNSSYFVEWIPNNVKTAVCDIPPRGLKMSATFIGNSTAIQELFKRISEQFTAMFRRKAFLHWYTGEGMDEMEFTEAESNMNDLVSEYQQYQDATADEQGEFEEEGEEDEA

MOLECULE: O=S(=O)(CCO)Nc1ccc(-c2nnc(-c3cc4ccoc4c(N4CCC(F)(F)CC4)n3)o2)c(N2CCC3(CC2)CC3)c1
IC50 (nM): 61

MOLECULE: CNc1cc(-c2cn(-c3ccc(NS(=O)(=O)CCO)cc3N3CCC4(CC3)CC4)nn2)nc(N2CCC(F)(F)CC2)n1
IC50 (nM): 110

MOLECULE: Cc1cc(-c2cn(-c3ccc(NS(=O)(=O)CCO)nc3N3CCC4(CC3)CC4)nn2)nc(N2CCC(F)(F)CC2)n1
IC50 (nM): 62

MOLECULE: O=S(=O)(CCO)Nc1ccc(-n2cc(-c3cc(N4CCC(F)(F)CC4)c4nnccc4c3)nn2)c(N2CCC3(CC2)CC3)c1
IC50 (nM): 75

MOLECULE: Nc1cc2cc(-c3cn(-c4ccc(NS(=O)(=O)CCO)cc4N4CCC5(CC4)CC5)nn3)cc(N3CCC(F)(F)CC3)c2nn1
IC50 (nM): 64

MOLECULE: Cc1cc(-n2cc(-c3ccc(NS(=O)(=O)CCO)cc3N3CCC4(CC3)CC4)nn2)nc(N2CCC(F)(F)CC2)n1
IC50 (nM): 61

MOLECULE: CCC(CO)S(=O)(=O)Nc1ccc(-n2cc(-c3cc(C)nc(N4CCC(F)(F)CC4)n3)nn2)c(N2CCC3(CC2)CC3)c1 (centres unmarked)
IC50 (nM): 154

MOLECULE: COc1cc(-c2nnc(-c3ccc(NS(=O)(=O)CCO)cc3N3CCC4(CC3)CC4)o2)nc(N2CCC(F)(F)CC2)n1
IC50 (nM): 61

MOLECULE: Cc1cc(-c2cn(-c3ccc(NS(=O)(=O)CCO)cc3N3CCC4(CC3)CC4)nn2)nc(N2C3COCC2C3)n1
IC50 (nM): 61

MOLECULE: O=S(=O)(CCO)Nc1ccc(-n2cc(-c3cc(OC4CCOC4)nc(N4CCC(F)(F)CC4)n3)nn2)c(N2CCC3(CC2)CC3)c1 (centres unmarked)
IC50 (nM): 117

MOLECULE: Cc1cc(-c2cn(-c3ccc(NS(=O)(=O)CCO)cc3N3CCC4(CC3)CC4)nn2)nc(N2[C@H](C)COC[C@@H]2C)n1
IC50 (nM): 151
